The origin of these recorded values is patent US8912220B2.

Each entry below carries its reported EC50.
molecular target: human 5-HT2C(VSV) (Homo sapiens, UniProt P28335, I156V/I160V/N158S); test: cell-based
Sequence (P28335 33-458 I156V/N158S/I160V limits assumed): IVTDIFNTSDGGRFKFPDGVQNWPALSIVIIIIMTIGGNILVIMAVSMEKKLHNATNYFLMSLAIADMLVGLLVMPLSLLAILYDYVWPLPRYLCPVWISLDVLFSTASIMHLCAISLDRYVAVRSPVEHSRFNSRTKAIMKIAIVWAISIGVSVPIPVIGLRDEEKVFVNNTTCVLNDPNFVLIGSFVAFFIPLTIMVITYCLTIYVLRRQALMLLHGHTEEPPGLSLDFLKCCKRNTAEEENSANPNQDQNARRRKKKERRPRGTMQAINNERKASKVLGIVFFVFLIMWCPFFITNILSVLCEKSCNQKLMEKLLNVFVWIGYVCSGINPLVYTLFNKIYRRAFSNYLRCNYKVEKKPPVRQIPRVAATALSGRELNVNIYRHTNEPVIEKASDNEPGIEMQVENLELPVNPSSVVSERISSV

1. COc1ccc(-c2cccnc2)c2c1c(CCN(C)C)cn2C [6-14] : 1 to 500 nM
2. CCn1cc(CCNC(c2ccccc2)c2ccccc2)c2c(O)cc(F)cc21 [31-10] : 1 to 500 nM
3. COc1ccc(Nc2ccccc2)c2c1c(CCN(C)C)cn2C [6-12] : 1 to 500 nM
4. CCn1cc(CCN(C)C)c2c(OCc3ccncc3)cc(F)cc21 [1-18b] : 500 to 10000 nM

[ask] Record request: EC50 value, item CNCCc1cn(C)c2ccc(F)c(OCCc3ccccc3Cl)c12 [33-19]
[reply] 500 to 10000 nM
